# Tested on: MCF7
# EXPERIMENT_SUMMARY: Growth inhibition of human MCF7 cells by SRB assay
# Type: functional, cell-based
pIC50: −log10 of the molar value.
READOUT_LABEL: pIC50

O=C(CCN1CCCCC1)Nc1ccc2c(NCc3ccc(F)c(F)c3)c3ccc(NC(=O)CCN4CCCCC4)cc3nc2c1; 6.28

1: O=C(CCN1CCCC1)Nc1ccc2c(NCc3ccc(F)c(F)c3)c3ccc(NC(=O)CCN4CCCC4)cc3nc2c1
2: CN(C)c1ccc(Nc2c3ccc(NC(=O)CCN4CCCCC4)cc3nc3cc(NC(=O)CCN4CCCCC4)ccc23)cc1
Query block: Parameter metric = pIC50. Return the lower-valued option from 1 and 2 . // respond with label for picked entry
Result block: 1
(1: 5.65, 2: 6.27)
